assay: NCI Yeast Anticancer Drug Screen. Data for the rad50 strain (AID 155);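 also: 0% = growth of vehicle-only cultures of the same strain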; conditions: S. cerevisiae rad50 strain growth inhibition; at 50.0 µM; hits give high values
Compounds without any hit were thinned out: in the full panel of roughly 79,000, 15% have a hit.
Reported growth inhibition is given for each of the following molecules.

[
  {
    "molecule": "CCOC(=O)C(O)(NC(C)=O)C(F)(F)F (stereo not given)",
    "growth inhibition (%)": 27.9
  },
  {
    "molecule": "O=C(NO)Oc1cccc2ccccc12",
    "growth inhibition (%)": 9.7
  },
  {
    "molecule": "COc1ccc(-n2c(=O)c(N=Nc3ccccc3Cl)c(O)n(-c3ccccc3OC)c2=S)cc1",
    "growth inhibition (%)": 22.4
  },
  {
    "molecule": "O=C1c2ccccc2C(=O)N1/N=[N+](\\[O-])N1Cc2ccccc2C1",
    "growth inhibition (%)": 18.4
  },
  {
    "molecule": "O=C(/C=C/c1ccccc1)c1cccc([N+](=O)[O-])c1",
    "growth inhibition (%)": 26
  },
  {
    "molecule": "CC(=O)n1oc2ccc(Br)cc2c1=O",
    "growth inhibition (%)": -3.6
  },
  {
    "molecule": "NC(=O)CCC(Nc1c2ccccc2nc2ccccc12)C(=O)O (stereo not given)",
    "growth inhibition (%)": 23.1
  },
  {
    "molecule": "COC(=O)CC(c1ccccc1)N1CCOCC1 (stereo not given)",
    "growth inhibition (%)": -12.3
  },
  {
    "molecule": "COc1ccc(/C=C\\c2cc(OC)c(OC)c(OC)c2)cc1OCC(=O)O",
    "growth inhibition (%)": -5.95
  },
  {
    "molecule": "CCOC(CCCl)c1ccc(C)cc1 (stereo not given)",
    "growth inhibition (%)": -25.2
  },
  {
    "molecule": "O=C1CC(C(=O)O)C(C(Cl)(Cl)Cl)O1 (stereo not given)",
    "growth inhibition (%)": -18.9
  },
  {
    "molecule": "O=C(CC1=NC2NN(c3ccccc3)C(=O)C2=C1CC(=O)c1ccc([N+](=O)[O-])cc1)c1ccc([N+](=O)[O-])cc1 (stereo not given)",
    "growth inhibition (%)": 42.1
  },
  {
    "molecule": "BrCc1cccc2cccc(CBr)c12",
    "growth inhibition (%)": -5.35
  },
  {
    "molecule": "CNC(=O)c1ccccc1C(=N)c1ccccc1",
    "growth inhibition (%)": -12.6
  },
  {
    "molecule": "CC(=O)Nc1ccc(N)cc1N",
    "growth inhibition (%)": -1.3
  },
  {
    "molecule": "C=C1C(C2(C)C=CC(=O)OC3(C)COC(=O)CC32)C(OC=O)C(OC(=O)C(O)C(C)CC)C2(C)C(c3ccoc3)CC(OC(C)=O)C12O (stereo not given)",
    "growth inhibition (%)": 7.9
  },
  {
    "molecule": "Cc1nc(-c2ccccc2)ncc1C(O)CN(C)C (stereo not given)",
    "growth inhibition (%)": -4.7
  },
  {
    "molecule": "CCOC(=O)C(=CNc1ccc(F)c(F)c1)C(=O)OCC",
    "growth inhibition (%)": -0.4
  },
  {
    "molecule": "CN(C)c1ccc(SC2OC(CO)C(O)C(O)C2O)cc1 (stereo not given)",
    "growth inhibition (%)": -12.8
  },
  {
    "molecule": "CCOC(=O)c1[nH]cnc1N",
    "growth inhibition (%)": -17.1
  },
  {
    "molecule": "NC(=NCC(O)c1ccccc1)Nc1ccccc1 (stereo not given)",
    "growth inhibition (%)": 0.75
  },
  {
    "molecule": "Cc1cccc(C)c1OC(=O)/C=C/c1ccccc1",
    "growth inhibition (%)": 31.3
  },
  {
    "molecule": "C/C(=C/C(=O)Nc1ccc2ccccc2c1)Nc1ccc2ccccc2c1",
    "growth inhibition (%)": -5.4
  },
  {
    "molecule": "CCCCCCCCCCCCNCC(O)c1cc(-c2ccccc2)nc2c(Cl)cc(Cl)cc12 (stereo not given)",
    "growth inhibition (%)": 8.1
  },
  {
    "molecule": "Nn1c(Cc2ccccc2)n[nH]c1=O",
    "growth inhibition (%)": 10.2
  }
]

* * *

Reported growth inhibition is given for each of the following compounds.
assay: NCI Yeast Anticancer Drug Screen. Data for the cln2 rad14 strain (AID 165);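 also: 0% = growth equal to vehicle treated cultures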; conditions: S. cerevisiae cln2 rad14 strain, at 50.0 µM, hits give high values
This is part of a sample that, as a whole, favours compounds with a hit. Of some 79,000 tested, about 15% had one in any assay.

[
  {
    "compound": "CC(=O)OCC(OC(C)=O)C1OC(OCc2ccccc2)C(OC(C)=O)C(OC(C)=O)C1OC(C)=O (configuration not stated)",
    "growth inhibition (%)": 44
  },
  {
    "compound": "COC(=O)c1cc(Cl)ccc1OCC(=O)NCc1ccc(Cl)cc1",
    "growth inhibition (%)": -5.85
  },
  {
    "compound": "CC(Sc1ncnc2[nH]ncc12)C(N)=O (configuration not stated)",
    "growth inhibition (%)": -6.6
  },
  {
    "compound": "CC[O-].CC[O-].O=C([CH-]C(=O)c1ccccc1)CCCCCCCCC(=O)[CH-]C(=O)c1ccccc1.[Ti+4]",
    "growth inhibition (%)": 13.2
  },
  {
    "compound": "COC(=O)C1C(=O)C2CCC1C(=O)C2C(=O)OC (configuration not stated)",
    "growth inhibition (%)": 4.1
  },
  {
    "compound": "CCOc1ccccc1NC(=O)C1=C(C)NC(C)=C(C(=O)Nc2ccccc2OCC)C1c1ccc([N+](=O)[O-])cc1",
    "growth inhibition (%)": -4.9
  },
  {
    "compound": "CCOC(=O)CC1CC(CN)(C(=O)OCC)CO1 (configuration not stated)",
    "growth inhibition (%)": 3.65
  },
  {
    "compound": "Nc1nc(N)c(N=Nc2cc(Cl)c([N+](=O)[O-])cc2Cl)c(=O)[nH]1",
    "growth inhibition (%)": -7.15
  },
  {
    "compound": "COC(=O)c1sc(C(=O)OC)c2c1CSC2",
    "growth inhibition (%)": 2.55
  },
  {
    "compound": "O=C(O)c1ccc(OCCOc2ccccc2)c(Cl)c1",
    "growth inhibition (%)": 40.2
  },
  {
    "compound": "Cn1c(N)c(NC(=O)CC#N)c(=O)n(C)c1=O",
    "growth inhibition (%)": 21
  },
  {
    "compound": "COc1cc(C(OC(C)=O)OC(C)=O)c(Cl)c(Cl)c1OC(C)=O",
    "growth inhibition (%)": -5.3
  },
  {
    "compound": "COc1cccc(N2C(=O)/C(=C/c3ccc(N(CCC#N)CCC#N)cc3)N=C2c2cc([N+](=O)[O-])ccc2Cl)c1",
    "growth inhibition (%)": 32
  },
  {
    "compound": "COc1ccc(-c2cc(=O)c3cccc(CC(=O)O)c3o2)cc1OC",
    "growth inhibition (%)": 98.8
  },
  {
    "compound": "CNC1C(O)C(OC2C(N)CC(N)C(OC3OC(CN)=CCC3N)C2O)OCC1(C)O (configuration not stated)",
    "growth inhibition (%)": -15.6
  },
  {
    "compound": "O=C(O)/C=C/C(=O)Nc1ccccc1Cl",
    "growth inhibition (%)": 0
  },
  {
    "compound": "COc1ccc(Nc2cc(N)nc(N)n2)c(=S)[nH]1",
    "growth inhibition (%)": 1.75
  },
  {
    "compound": "CC(C)CCOC(=O)N(C)c1ccccc1",
    "growth inhibition (%)": -17.9
  },
  {
    "compound": "CNC(=O)OCc1c(COC(=O)NC)c2n(c1C)CS(=O)(=O)C2",
    "growth inhibition (%)": 6.5
  },
  {
    "compound": "O=C(Nc1ccn(C2CCC(COC(c3ccccc3)(c3ccccc3)c3ccccc3)O2)c(=O)n1)c1ccccc1 (configuration not stated)",
    "growth inhibition (%)": -25
  },
  {
    "compound": "CCCCOC(=O)NC(=O)c1cc2cccc(OC)c2oc1=O",
    "growth inhibition (%)": 14.3
  },
  {
    "compound": "Cc1ccc(N=Nc2ccc(C)cc2NC(=O)Nc2cc([N+](=O)[O-])ccc2F)cc1",
    "growth inhibition (%)": -5.9
  }
]

* * *

assay: NCI Yeast Anticancer Drug Screen. Data for the cln2 rad14 strain (AID 165);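 also: 0% = growth equal to vehicle treated cultures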; settings: S. cerevisiae cln2 rad14 strain, at 50.0 µM, hits give high values
About 79,000 compounds went through this panel and 15% of them were active in at least one assay; those are over-represented in the sample as a whole. Calls of active or inactive are those of the source. No stated cut-off is given here; in the data, active means growth inhibition above about 70%; inactive means the rest.
Reported growth inhibition is given for each of the following molecules.
measured.property: growth inhibition

[
  {
    "molecule": "O=[N+]([O-])c1ccc(/C=C2/c3ccccc3-c3nc4ccccc4cc32)cc1",
    "measured.property": "growth inhibition",
    "value.measured": "-2.6% (inactive)"
  },
  {
    "molecule": "COc1ccc(CC(CN)P(=O)(O)O)cc1 (centres undefined)",
    "measured.property": "growth inhibition",
    "value.measured": "4.45% (inactive)"
  },
  {
    "molecule": "COc1cc2c(cc1OC)C(CS(C)=O)Cc1cc(OC)c(OC)cc1N(C)CCC2 (centres undefined)",
    "measured.property": "growth inhibition",
    "value.measured": "10.6% (inactive)"
  },
  {
    "molecule": "O=C(NN1C(=O)C(Cl)C1c1cccc(Cl)c1)c1ccccc1O (centres undefined)",
    "measured.property": "growth inhibition",
    "value.measured": "-26.6% (inactive)"
  },
  {
    "molecule": "C(=C/c1ccc(/C=C/C=C\\c2ccccc2)cc1)/C=C/c1ccccc1",
    "measured.property": "growth inhibition",
    "value.measured": "-50.6% (inactive)"
  },
  {
    "molecule": "CN(/N=C(\\C(=O)O)c1ccccc1)C1=NCCN1",
    "measured.property": "growth inhibition",
    "value.measured": "41.2% (inactive)"
  },
  {
    "molecule": "CCCCCCCCCCCCCCCc1c(NC(C)(CC(C)(C)O)[P+](=O)O)c(=O)n(C)n1C (centres undefined)",
    "measured.property": "growth inhibition",
    "value.measured": "-25.2% (inactive)"
  },
  {
    "molecule": "Cc1cc2c(C(C)C)c(O)c(O)c(C=Nc3ccc(-c4ccccc4)cc3)c2c(O)c1-c1c(C)cc2c(C(C)C)c(O)c(O)c(C=Nc3ccc(-c4ccccc4)cc3)c2c1O",
    "measured.property": "growth inhibition",
    "value.measured": "-15.2% (inactive)"
  },
  {
    "molecule": "CC(Cc1ccco1)(C(=O)O)C(=O)O",
    "measured.property": "growth inhibition",
    "value.measured": "-1.3% (inactive)"
  },
  {
    "molecule": "CC1CCCCN1Cc1ccccc1COC(=O)c1ccc([N+](=O)[O-])cc1 (centres undefined)",
    "measured.property": "growth inhibition",
    "value.measured": "-29.1% (inactive)"
  },
  {
    "molecule": "C=CCNc1ccc(C)cc1",
    "measured.property": "growth inhibition",
    "value.measured": "13.4% (inactive)"
  },
  {
    "molecule": "CC(C)C1OC(c2ccccc2)OCC1(C)C (centres undefined)",
    "measured.property": "growth inhibition",
    "value.measured": "-39.2% (inactive)"
  },
  {
    "molecule": "CC(C)c1ccccc1OC(=O)NC1CCCCC1",
    "measured.property": "growth inhibition",
    "value.measured": "0.15% (inactive)"
  },
  {
    "molecule": "CC(/C=N/N(C)C)=N\\N(C)C",
    "measured.property": "growth inhibition",
    "value.measured": "-60.4% (inactive)"
  },
  {
    "molecule": "CC(NC(=O)C(N)CC(=O)O)NC(=O)C1CCC1 (centres undefined)",
    "measured.property": "growth inhibition",
    "value.measured": "24.6% (inactive)"
  },
  {
    "molecule": "CCCC[P+](C)(CC[P+](C)(c1ccccc1)c1ccccc1)c1ccccc1 (centres undefined)",
    "measured.property": "growth inhibition",
    "value.measured": "96.5% (active)"
  },
  {
    "molecule": "COc1ccc(/C=C\\c2cc(OC)c(OC)c(OC)c2)cc1OCC(=O)O",
    "measured.property": "growth inhibition",
    "value.measured": "8.65% (inactive)"
  },
  {
    "molecule": "O=C(O)c1c(Br)c(Br)c(Br)c(Br)c1C(=O)Nc1ccc(Br)cc1",
    "measured.property": "growth inhibition",
    "value.measured": "-8.6% (inactive)"
  },
  {
    "molecule": "CCCCCCc1cn([C@H]2C[C@H](O)[C@@H](CO)O2)c(=O)[nH]c1=O",
    "measured.property": "growth inhibition",
    "value.measured": "-12.8% (inactive)"
  },
  {
    "molecule": "CCCCNc1nc2c(=O)n(C)c(=O)n(C)c2s1",
    "measured.property": "growth inhibition",
    "value.measured": "-17.4% (inactive)"
  },
  {
    "molecule": "CCOC1=CC(=O)C(=O)c2ccccc21",
    "measured.property": "growth inhibition",
    "value.measured": "-17.7% (inactive)"
  },
  {
    "molecule": "COc1ccc(NC(=O)Oc2ccc(OC)cc2)cc1",
    "measured.property": "growth inhibition",
    "value.measured": "11.2% (inactive)"
  },
  {
    "molecule": "C=CCCCCCC(O)C(O)C/C=C\\C/C=C\\CC (centres undefined)",
    "measured.property": "growth inhibition",
    "value.measured": "-1.35% (inactive)"
  },
  {
    "molecule": "COc1ccc(CC2Cc3ccccc3CC(=O)N2)cc1OC (centres undefined)",
    "measured.property": "growth inhibition",
    "value.measured": "3.65% (inactive)"
  }
]
